Measured normalised response by item
System: CAL-85-1
assay_procedure: normalised response (% of control), CellTox Green; higher = less cell death (100 = DMSO, 0 = benzethonium chloride kill control)
stated_conditions: incubation time: 72 h
Quick reminder: number only, in %, skip the unit.

compound	parameter	meas_value
O=C(NC[C@H](O)CO)c1ccncc1Nc1ccc(I)cc1F [Pimasertib] (100 nM)	normalised response	91.4
CCN(CC)CCNC(=O)c1c(C)[nH]c(/C=C2\C(=O)Nc3ccc(F)cc32)c1C [Sunitinib] (100 nM)	normalised response	99.8
CC/C(=C(\c1ccc(O)cc1)c1ccc(OCCN(C)C)cc1)c1ccccc1 [4-hydroxytamoxifen] (100 nM)	normalised response	113
CO[C@@H](C(=O)N1Cc2[nH]nc(NC(=O)c3ccc(N4CCN(C)CC4)cc3)c2C1)c1ccccc1 [Danusertib] (100 nM)	normalised response	86.5
COc1nc(N)nc2c1ncn2[C@@H]1O[C@H](CO)[C@@H](O)[C@@H]1O [Nelarabine] (1000 nM)	normalised response	108
O=C1c2c(O)ccc(O)c2C(=O)c2c(NCCNCCO)ccc(NCCNCCO)c21 [Mitoxantrone] (10 nM)	normalised response	96.2
Cc1cccc(-c2nn3c(c2-c2ccnc4ccc(C(N)=O)cc24)CCC3)n1 [Galunisertib] (10 nM)	normalised response	107
Nc1ccccc1NC(=O)c1ccc(CNc2nccc(-c3cccnc3)n2)cc1 [Mocetinostat] (1000 nM)	normalised response	101

Item under review: c1cc(CN2CCCNCCNCCCNCC2)ccc1CN1CCCNCCNCCCNCC1 [Plerixafor] (10000 nM) . Reported normalised response?
117

Item under review: c1cc(CN2CCCNCCNCCCNCC2)ccc1CN1CCCNCCNCCCNCC1 [Plerixafor] (100 nM) . Reported normalised response?
92.5

Item under review: CCC/C=C/C=C/C(=O)O[C@H]1/C(=C/C(=O)OC)C[C@H]2C[C@H]([C@@H](C)O)OC(=O)C[C@H](O)C[C@@H]3C[C@H](OC(C)=O)C(C)(C)[C@](O)(C[C@@H]4C/C(=C/C(=O)OC)C[C@H](/C=C/C(C)(C)[C@]1(O)O2)O4)O3 [Bryostatin 1] (100 nM) . Reported normalised response?
64.6
